Would you mind telling me the reported Repellent Index of each entry?
System: Neutrophils
experiment: High throughput transmigration assay (Example 9), chemorepulsion
Assay type: cell-based, human
applied_conditions: Neutrophils; mean of three donors at concentration of highest activity; range 0.00125-1.25 μM

Request the reported Repellent Index associated with HSP25: heat shock protein; accession AAA37862 (protein, UniProt P14602 1-209, looked up) Heat shock protein beta-1: MTERRVPFSLLRSPSWEPFRDWYPAHSRLFDQAFGVPRLPDEWSQWFSAAGWPGYVRPLPAATAEGPAAVTLAAPAFSRALNRQLSSGVSEIRQTADRWRVSLDVNHFAPEELTVKTKEGVVEITGKHEERQDEHGYISRCFTRKYTLPPGVDPTLVSSSLSPEGTLTVEAPLPKAVTQSAEITIPVTFEARAQIGGPEAGKSEQSGAK 11.9

Queued: CXCL7: chemokine (protein, UniProt P02775 35-128, looked up) Platelet basic protein: SSTKGQTKRNLAKGKEESLDSDLYAELRCMCIKTTSGIHPKNIQSLEVIGKGTHCNQVEVIATLKDGRKICLDPDAPRIKKIVQKKLAGDESAD 3.9

Queued: CCL19: chemokine (protein, UniProt Q99731 22-98, looked up) C-C motif chemokine 19: GTNDAEDCCLSVTQKPIPGYIVRNFHYLLIKDGCRVPAVVFTTLRGRQLCAPPDQPWVERIIQRLQRTSAKMKRRSS 1.5

Queued: HSP32 Rat: heat shock protein; accession P06762/AAH91164 (protein, UniProt P06762 1-289, looked up) Heme oxygenase 1: MERPQLDSMSQDLSEALKEATKEVHIRAENSEFMRNFQKGQVSREGFKLVMASLYHIYTALEEEIERNKQNPVYAPLYFPEELHRRAALEQDMAFWYGPHWQEAIPYTPATQHYVKRLHEVGGTHPELLVAHAYTRYLGDLSGGQVLKKIAQKAMALPSSGEGLAFFTFPSIDNPTKFKQLYRARMNTLEMTPEVKHRVTEEAKTAFLLNIELFEELQALLTEEHKDQSPSQTEFLRQRPASLVQDTTSAETPRGKSQISTSSSQTPLLRWVLTLSFLLATVAVGIYAM 1.8
